PROTOCOL NOTES: Pharmacokinetics of ciprofol in rats pretreated with psoralen, clopidogrel or CMC
Assay type: in vivo, rat
RECORDED CONDITIONS: SD, rat, plasma, iv, 27 mg/kg, Psoralen(27mg/kg)group, ciprofol 2.4 mg·kg^-1 i.v.; rats No.1-8 and Mean
MEASURED ATTRIBUTE: Cmax (ng/mL)

CC(C)c1cccc([C@H](C)C2CC2)c1O ... 1490

---

PROTOCOL NOTES: Pharmacokinetics of ciprofol in rats pretreated with psoralen, clopidogrel or CMC
Type: in vivo, rat
RECORDED CONDITIONS: SD, rat, plasma, iv, 6.75 mg/kg, Clopidogrel(6.75mg/kg)group, ciprofol 2.4 mg·kg^-1 i.v., T 20.00 min; rats No.1-8 and Mean
Description: 5 μL of IS solution (2.5 μg·mL^-1 D6-ciprofol) was added to 100 μL of plasma and mixed. Then, 300 μL of acetonitrile was added. […] Twenty-four SD rats were randomly and equally divided into three groups: the control group, psoralen group and clopidogrel group. […] The duration of loss of righting reflex (LORR) in each rat was measured. […] The plasma was processed and measured as described in Section 2.4.3, and DAS 2.0 software and a noncompartmental model were used to analyse the pharmacokinetic parameters. […]
MEASURED ATTRIBUTE: concentration at 20 min (ng/mL)

CC(C)c1cccc([C@H](C)C2CC2)c1O ... 193

---

PROTOCOL NOTES: Pharmacokinetics of ciprofol in rats pretreated with psoralen, clopidogrel or CMC
Type: in vivo, rat
RECORDED CONDITIONS: SD, rat, plasma, iv, 2.4 mg·kg^-1, Control (CMC-Na), ciprofol 2.4 mg·kg^-1 i.v., T 12.00 min; rats No.1-8 and Mean
MEASURED ATTRIBUTE: concentration at 12 min (ng/mL)

CC(C)c1cccc([C@H](C)C2CC2)c1O ... 312

---

PROTOCOL NOTES: Pharmacokinetics of ciprofol in rats pretreated with psoralen, clopidogrel or CMC
Format: in vivo, rat
RECORDED CONDITIONS: SD, rat, plasma, iv, 27 mg/kg, Psoralen(27mg/kg)group, ciprofol 2.4 mg·kg^-1 i.v.; rats No.1-8 and Mean; read-out: Vz
MEASURED ATTRIBUTE: Vd

CC(C)c1cccc([C@H](C)C2CC2)c1O ... 2.8 L/kg

---

PROTOCOL NOTES: Pharmacokinetics of ciprofol in rats pretreated with psoralen, clopidogrel or CMC
Format: in vivo, rat
RECORDED CONDITIONS: SD, rat, plasma, iv, 2.4 mg·kg^-1, Control (CMC-Na), ciprofol 2.4 mg·kg^-1 i.v., T 2.00 min; rats No.1-8 and Mean
MEASURED ATTRIBUTE: concentration at 2 min (ng/mL)

CC(C)c1cccc([C@H](C)C2CC2)c1O ... 1500

---

PROTOCOL NOTES: Pharmacokinetics of ciprofol in rats pretreated with psoralen, clopidogrel or CMC
Format: in vivo, rat
RECORDED CONDITIONS: SD, rat, plasma, iv, 27 mg/kg, Psoralen(27mg/kg)group, ciprofol 2.4 mg·kg^-1 i.v.; rats No.1-8 and Mean; read-out: t1/2z
MEASURED ATTRIBUTE: half-life (min)

CC(C)c1cccc([C@H](C)C2CC2)c1O ... 15.4

---

PROTOCOL NOTES: Pharmacokinetics of ciprofol in rats pretreated with psoralen, clopidogrel or CMC
Type: in vivo, rat
RECORDED CONDITIONS: SD, rat, plasma, intravenous, 2.4 mg/kg, rats, Psoralen group (27 mg·kg^-1 gavage daily 7 d), ciprofol 2.4 mg·kg^-1 i.v., n = 8; read-out: MRT0-∞
MEASURED ATTRIBUTE: MRT inf (min)

CC(C)c1cccc([C@H](C)C2CC2)c1O ... 16.8
